method notes: qHTS assay to identify small molecule antagonists of the androgen receptor (AR) signaling pathway using the MDA cell line in the presence of 0.5 nM R1881 - cell viability counter screen (AID 1259242); also: nearly all actives have a fitted effect of over 45% in size
test context: MDA-kb2 viability, CellTiter-Fluor protease fluorescence, 16 h; series mostly up to 92.4 µM
Inconclusive results are not listed. Activity calls are given as the source filed them. Calls follow the shape of the dose curve; as a rule, active = well fitted cell-killing curve with a large enough effect in the repeat runs; inconclusive = weak or mixed curves, or effect the other way; inactive = flat fitted curve, though single readings scatter.
value kind: outcome

CC1(C)[C@H](/C=C2\CCSC2=O)[C@@H]1C(=O)OCc1coc(Cc2ccccc2)c1	inactive
O=C(Cl)c1ccccc1F	inactive
O=C(CCCCl)c1ccc(F)cc1	inactive
CC(Cl)CCl (centres undefined)	inactive

* * *

method notes: qHTS assay to identify small molecule antagonists of the estrogen related receptor signaling pathway with the pleiotropic PPARgamma coactivator (PGC) from Tox21 10K library (AID 1224841); also: actives are mostly falling curves and most rising ones were filed inactive; nearly all actives have a fitted effect of over 50% in size
test context: PGC/ERR reporter cell line, ONE-Glo luciferase, 18 h; series mostly up to 92.4 µM
Records with an inconclusive call do not appear. The source made the active and inactive calls. The rule behind the calls is not given here.
Allowed answers: active, inactive

query: Which outcome did this test record for the compound `C=CCOC(=O)c1ccccc1N` ?
result: inactive

query: Recorded test outcome, item `CNC(=O)Oc1cc(C)cc(C(C)C)c1`
result: inactive

query: What did this assay record as the result for `CSSC` ?
result: inactive

query: I would be grateful if you could indicate the recorded call for `Cc1ccn2nc(S(=O)(=O)Nc3c(F)cccc3F)nc2n1` .
result: inactive

query: Record request — test call for `CC(=O)[O][Sn]([c]1ccccc1)([c]1ccccc1)[c]1ccccc1`
result: active

query: What outcome does the record of this test show for `CCCCN(CCCC)C(=S)S` ?
result: inactive

query: // outcome(item) with item = COC(=O)C(C)N(C(=O)c1ccco1)c1c(C)cccc1C (stereo not drawn)
result: inactive

query: I'd appreciate the recorded outcome for CCC(C)Nc1c([N+](=O)[O-])cc(C(C)(C)C)cc1[N+](=O)[O-] (stereo not drawn) from this test.
result: inactive

query: // outcome(item) with item = `C#CC1(O)CCCCC1`
result: inactive

query: Dear colleague, could you share the recorded outcome for `CCOP(=O)(OCC)Oc1cc(C)nc(C(C)C)n1` when you have a moment?
result: inactive

query: Record lookup: outcome of this test for `O=C(Nc1ccc(F)cc1F)c1cccnc1Oc1cccc(C(F)(F)F)c1` ?
result: inactive

query: Look up the recorded call for `CN1CCc2cc(Cl)c(O)cc2[C@H]2c3ccccc3CC[C@@H]21` in this test.
result: inactive

query: Entry `Cc1cc2c3c(c1)C(c1ccccc1)=N[C@@H](NC(=O)c1ccncc1)C(=O)N3CC2` : call = ?
result: inactive

query: Called result for `Cc1cnc2c(C(=O)O)c(Cl)ccc2c1`
result: inactive

query: Test call for this compound, please: CCOP(=S)(NC(C)C)Oc1ccccc1C(=O)OC(C)C (stereo not drawn)
result: active

query: Just curious, what result did `CC[C@]1(O)CC[C@H]2[C@@H]3CCC4=CCCC[C@@H]4[C@H]3CC[C@@]21C` get here?
result: inactive

query: Dear colleague, could you share the recorded outcome for `O=[N+]([O-])c1ccc(Cl)c(Cl)c1Cl` when you have a moment?
result: inactive

query: How was `O=[N+]([O-])C(Br)Br` classified in this test?
result: inactive

query: # lookup: test call for `c1ccc(Nc2ccc(Nc3ccccc3)cc2)cc1`
result: inactive

query: // return assay outcome for `CCCCON=O`
result: active

query: How was CC(C)NCC(O)c1ccccc1Cl (stereo not drawn) classified in this test?
result: inactive

query: // return assay outcome for `O=NN(CCO)CCO`
result: inactive

query: Which outcome was entered for the compound `ClSC(Cl)(Cl)Cl` in this test?
result: inactive

query: Hi, sorry to bother you, what did the test record for CC(O)C(=O)[O][Hg][c]1ccccc1 (stereo not drawn) ?
result: active

query: Record lookup: outcome of this test for `CCN(CC)CCN1C(=O)CN=C(c2ccccc2F)c2cc(Cl)ccc21` ?
result: inactive

query: Which result was noted for this compound in the test: `Nc1cc(Cl)ccc1Cl`
result: inactive

query: Any idea what this test logged for `Oc1cc(Cl)c(Cl)c(Cl)c1Cl` ?
result: active

query: What did this assay record as the result for `CN=C=O` ?
result: inactive

Data credit: PubChem BioAssay (Tox21)
